Reported log10 GI50 is given for each of the following compounds.
# System: SF-539 (CNS)
# assay.overview: NCI Developmental Therapeutics antiproliferative assay, SF-539
# Assay type: cell-based, human
Hello, just confirming the data are log10 of GI50 with units of µM.

| compound | recorded.measurement |
| --- | --- |
| O=C1c2ccccc2-c2c1c1ccccc1c(=O)n2C[C@H](O)[C@@H](O)[C@H](O)CO [Compound 17d] | 0.90 |

Requested field: log10 GI50. Item: COc1cc2c3c(n(C[C@H](O)CO)c(=O)c2cc1OC)-c1ccccc1C3=O
-0.67

Input O=C1c2ccccc2-c2c1c1ccccc1c(=O)n2C[C@H](O)[C@H](O)[C@H](O)CO [Compound 17b]
0.33

Input NC[C@H](O)Cn1c2c(c3ccccc3c1=O)C(=O)c1ccccc1-2 [Compound 27d]
-0.46

Input O=C1c2ccccc2-c2c1c1ccccc1c(=O)n2C[C@@H](O)[C@@H](O)[C@H](O)CO [Compound 17e]
1.05

Input C[C@H](O)Cn1c2c(c3ccccc3c1=O)C(=O)c1ccccc1-2 [Compound 27c]
0.83

Input O=C1c2ccccc2-c2c1c1ccccc1c(=O)n2C[C@H](O)[C@H](O)[C@H](O)[C@H](O)CO [Compound 17h]
0.76

Input O=C1c2ccccc2-c2c1c1ccccc1c(=O)n2C[C@@H](O)[C@H](O)[C@H](O)CO [Compound 17a]
0.88

Input C[C@@H](O)Cn1c2c(c3ccccc3c1=O)C(=O)c1ccccc1-2 [Compound 27a]
0.80
